Measured MIC90 values are reported for all entries that follow.
- System: Campylobacter coli
- Assay procedure: Antibacterial activity against Campylobacter coli by broth microdilution method
- Type: functional

Consider the reported MIC90 for these molecules:
CCn1cc(C(=O)O)c(=O)c2ccc(C)nc21
> 32 µg/mL
CC1Sc2c(C(=O)O)c(=O)c3cc(F)c(N4CCNCC4)cc3n21 (stereo not drawn)
> 2 µg/mL

Continue with the molecule presented below.
[ask] May I ask what MIC90 has been recorded for O=C(O)c1cn(C2CC2)c2cc(N3CCNCC3)c(F)cc2c1=O ?
[reply] > 2 µg/mL
